Origin of measurements: patent US11787825B2

Recorded measurements of pH 2 solubility, one per entry
- cond: 0.1N HCL, 1.0% DMSO, 24-hour incubation at ambient temperature, maximum theoretical compound concentration 100 μM

{"columns": ["compound", "pH 2 solubility [μM]"],
 "data": [
  ["CC(C)(C#Cc1ccc(-c2ccc(Cl)c3c(N(C(=O)CCCOP(=O)(O)O)S(C)(=O)=O)nn(CC(F)(F)F)c23)c([C@H](Cc2cc(F)cc(F)c2)NC(=O)Cn2nc(C(F)(F)F)c3c2C(F)(F)[C@@H]2C[C@H]32)n1)S(C)(=O)=O [Compound 27]", 1],
  ["CC(C)(C#Cc1ccc(-c2ccc(Cl)c3c(N(C(=O)CNC(=O)C(=O)O)S(C)(=O)=O)nn(CC(F)(F)F)c23)c([C@H](Cc2cc(F)cc(F)c2)NC(=O)Cn2nc(C(F)(F)F)c3c2C(F)(F)[C@@H]2C[C@H]32)n1)S(C)(=O)=O [Compound 13]", 1]
]}

---

- cond: Beagle, in vivo, po
Marks after values point to notes of the source that are not given here.
Listing: Dog F % (solution) of selected molecules

{"columns": ["molecule_smiles", "Dog F % (solution)"],
 "data": [
  ["CC(C)(C#Cc1ccc(-c2ccc(Cl)c3c(N(C(=O)CCCN(CC(=O)O)C(=O)OCOP(=O)(O)O)S(C)(=O)=O)nn(CC(F)(F)F)c23)c([C@H](Cc2cc(F)cc(F)c2)NC(=O)Cn2nc(C(F)(F)F)c3c2C(F)(F)[C@@H]2C[C@H]32)n1)S(C)(=O)=O", "18^c %"],
  ["CC(C)(C#Cc1ccc(-c2ccc(Cl)c3c(N(C(=O)CCC(=O)OCOP(=O)(O)O)S(C)(=O)=O)nn(CC(F)(F)F)c23)c([C@H](Cc2cc(F)cc(F)c2)NC(=O)Cn2nc(C(F)(F)F)c3c2C(F)(F)[C@@H]2C[C@H]32)n1)S(C)(=O)=O", "51^b %"],
  ["Cc1cc(C)c(C(C)(C)CC(=O)N(c2nn(CC(F)(F)F)c3c(-c4ccc(C#CC(C)(C)S(C)(=O)=O)nc4[C@H](Cc4cc(F)cc(F)c4)NC(=O)Cn4nc(C(F)(F)F)c5c4C(F)(F)[C@@H]4C[C@H]54)ccc(Cl)c23)S(C)(=O)=O)c(OP(=O)(O)O)c1", "60^b %"],
  ["CC(C)(C#Cc1ccc(-c2ccc(Cl)c3c(N(C(=O)CCCNC(=O)OCOP(=O)(O)O)S(C)(=O)=O)nn(CC(F)(F)F)c23)c([C@H](Cc2cc(F)cc(F)c2)NC(=O)Cn2nc(C(F)(F)F)c3c2C(F)(F)[C@@H]2C[C@H]32)n1)S(C)(=O)=O", "33^b %"]
]}

---

- assay_explanation: physchem
- cond: fasted state simulated intestinal fluid (FaSSIF), 25 °C, fassif, thermodynamic from solid
Listed next: entries and their corresponding solubility.

{"columns": ["compound", "measurement_unit", "reading_qualifier", "solubility"],
 "data": [
  ["CN(CCCC(=O)N(c1nn(CC(F)(F)F)c2c(-c3ccc(C#CC(C)(C)S(C)(=O)=O)nc3[C@H](Cc3cc(F)cc(F)c3)NC(=O)Cn3nc(C(F)(F)F)c4c3C(F)(F)[C@@H]3C[C@H]43)ccc(Cl)c12)S(C)(=O)=O)C(=O)OCOP(=O)(O)O [Compound 32]", "µg/mL", "=", 194],
  ["CC(C)(C#Cc1ccc(-c2ccc(Cl)c3c(N(C(=O)CCCN(CCC(=O)O)C(=O)OCOP(=O)(O)O)S(C)(=O)=O)nn(CC(F)(F)F)c23)c([C@H](Cc2cc(F)cc(F)c2)NC(=O)Cn2nc(C(F)(F)F)c3c2C(F)(F)[C@@H]2C[C@H]32)n1)S(C)(=O)=O [Compound 31]", "µg/mL", "=", 2930],
  ["CC(C)(C#Cc1ccc(-c2ccc(Cl)c3c(N(C(=O)CCCNC(=O)OCOP(=O)(O)O)S(C)(=O)=O)nn(CC(F)(F)F)c23)c([C@H](Cc2cc(F)cc(F)c2)NC(=O)Cn2nc(C(F)(F)F)c3c2C(F)(F)[C@@H]2C[C@H]32)n1)S(C)(=O)=O [Compound 33]", "µg/mL", "=", 326],
  ["CC(C)(C#Cc1ccc(-c2ccc(Cl)c3c(N(C(=O)CCCN(CC(=O)O)C(=O)OCOP(=O)(O)O)S(C)(=O)=O)nn(CC(F)(F)F)c23)c([C@H](Cc2cc(F)cc(F)c2)NC(=O)Cn2nc(C(F)(F)F)c3c2C(F)(F)[C@@H]2C[C@H]32)n1)S(C)(=O)=O [Compound 30]", "µg/mL", ">", 1100]
]}

---

- assay_explanation: physchem
- cond: fasted state simulated intestinal fluid (FaSSIF), 25 °C, fassif, thermodynamic from solid
endpoint_name: solubility (µg/mL)

{"columns": ["compound", "measurement_unit", "reading_qualifier", "obs_value"],
 "data": [
  ["CC(C)(C#Cc1ccc(-c2ccc(Cl)c3c(N(C(=O)CCC(=O)OCOP(=O)(O)O)S(C)(=O)=O)nn(CC(F)(F)F)c23)c([C@H](Cc2cc(F)cc(F)c2)NC(=O)Cn2nc(C(F)(F)F)c3c2C(F)(F)[C@@H]2C[C@H]32)n1)S(C)(=O)=O [Compound 28]", "µg/mL", "=", 555],
  ["CC(C)(C#Cc1ccc(-c2ccc(Cl)c3c(N(C(=O)CCC(CC(=O)O)NC(=O)OCOP(=O)(O)O)S(C)(=O)=O)nn(CC(F)(F)F)c23)c([C@H](Cc2cc(F)cc(F)c2)NC(=O)Cn2nc(C(F)(F)F)c3c2C(F)(F)[C@@H]2C[C@H]32)n1)S(C)(=O)=O (stereo in doubt) [Compound 34]", "µg/mL", ">", 2840],
  ["CC(C)(CCN(CC(=O)O)C(=O)OCOP(=O)(O)O)C(=O)N(c1nn(CC(F)(F)F)c2c(-c3ccc(C#CC(C)(C)S(C)(=O)=O)nc3[C@H](Cc3cc(F)cc(F)c3)NC(=O)Cn3nc(C(F)(F)F)c4c3C(F)(F)[C@@H]3C[C@H]43)ccc(Cl)c12)S(C)(=O)=O [Compound 43]", "µg/mL", "=", 2900],
  ["CN(C(=O)N(c1nn(CC(F)(F)F)c2c(-c3ccc(C#CC(C)(C)S(C)(=O)=O)nc3[C@H](Cc3cc(F)cc(F)c3)NC(=O)Cn3nc(C(F)(F)F)c4c3C(F)(F)[C@@H]3C[C@H]43)ccc(Cl)c12)S(C)(=O)=O)c1ncccc1CN(CC(=O)O)C(=O)OCOP(=O)(O)O [Compound 52]", "µg/mL", "=", 1370],
  ["CC(C)(C#Cc1ccc(-c2ccc(Cl)c3c(N(C(=O)/C=C/C(=O)O)S(C)(=O)=O)nn(CC(F)(F)F)c23)c([C@H](Cc2cc(F)cc(F)c2)NC(=O)Cn2nc(C(F)(F)F)c3c2C(F)(F)[C@@H]2C[C@H]32)n1)S(C)(=O)=O [Compound 1]", "µg/mL", "=", 321],
  ["CC(C)(C#Cc1ccc(-c2ccc(Cl)c3c(N(C(=O)CC4(CN(CC(=O)O)C(=O)OCOP(=O)(O)O)CC4)S(C)(=O)=O)nn(CC(F)(F)F)c23)c([C@H](Cc2cc(F)cc(F)c2)NC(=O)Cn2nc(C(F)(F)F)c3c2C(F)(F)[C@@H]2C[C@H]32)n1)S(C)(=O)=O [Compound 39]", "µg/mL", "=", 1190],
  ["CC(C)(C#Cc1ccc(-c2ccc(Cl)c3c(N(C(=O)CCCOP(=O)(O)O)S(C)(=O)=O)nn(CC(F)(F)F)c23)c([C@H](Cc2cc(F)cc(F)c2)NC(=O)Cn2nc(C(F)(F)F)c3c2C(F)(F)[C@@H]2C[C@H]32)n1)S(C)(=O)=O [Compound 27]", "µg/mL", "=", 190]
]}

---

- cond: 1×PBS buffer (pH 7.4), 1.0% DMSO, 24-hour incubation at ambient temperature, maximum theoretical compound concentration 100 μM
pH 7 solubility for assorted compounds

{"columns": ["compound", "measurement_unit", "pH 7 solubility"],
 "data": [
  ["CC(C)(C#Cc1ccc(-c2ccc(Cl)c3c(N(C(=O)CNC(=O)OCOP(=O)(O)O)S(C)(=O)=O)nn(CC(F)(F)F)c23)c([C@H](Cc2cc(F)cc(F)c2)NC(=O)Cn2nc(C(F)(F)F)c3c2C(F)(F)[C@@H]2C[C@H]32)n1)S(C)(=O)=O", "μM", 48],
  ["CC(C)(C#Cc1ccc(-c2ccc(Cl)c3c(NS(C)(=O)=O)nn(CC(F)(F)F)c23)c([C@H](Cc2cc(F)cc(F)c2)NC(=O)Cn2nc(C(F)(F)F)c3c2C(F)(F)[C@@H]2C[C@H]32)n1)S(C)(=O)=O [Intermediate 5, reference compound]", "μM", 0.32],
  ["CC(C)(C#Cc1ccc(-c2ccc(Cl)c3c(N(C(=O)CCCN(CCC(=O)O)C(=O)OCOP(=O)(O)O)S(C)(=O)=O)nn(CC(F)(F)F)c23)c([C@H](Cc2cc(F)cc(F)c2)NC(=O)Cn2nc(C(F)(F)F)c3c2C(F)(F)[C@@H]2C[C@H]32)n1)S(C)(=O)=O", "μM", 79],
  ["C[C@H](NC(=O)OCOP(=O)(O)O)C(=O)N(c1nn(CC(F)(F)F)c2c(-c3ccc(C#CC(C)(C)S(C)(=O)=O)nc3[C@H](Cc3cc(F)cc(F)c3)NC(=O)Cn3nc(C(F)(F)F)c4c3C(F)(F)[C@@H]3C[C@H]43)ccc(Cl)c12)S(C)(=O)=O", "μM", 100],
  ["CNCC(=O)N(c1nn(CC(F)(F)F)c2c(-c3ccc(C#CC(C)(C)S(C)(=O)=O)nc3[C@H](Cc3cc(F)cc(F)c3)NC(=O)Cn3nc(C(F)(F)F)c4c3C(F)(F)[C@@H]3C[C@H]43)ccc(Cl)c12)S(C)(=O)=O", "μM", 6],
  ["CC(C)(C#Cc1ccc(-c2ccc(Cl)c3c(N(C(=O)[C@@H](N)CCCNC(=N)N)S(C)(=O)=O)nn(CC(F)(F)F)c23)c([C@H](Cc2cc(F)cc(F)c2)NC(=O)Cn2nc(C(F)(F)F)c3c2C(F)(F)[C@@H]2C[C@H]32)n1)S(C)(=O)=O", "μM", 27]
]}
